Values compiled from the RNAGym collection of RNA variant scans (doi:10.1002/anie.201605470).

B1: Osa-1-4 twister ribozyme (parent)
chain: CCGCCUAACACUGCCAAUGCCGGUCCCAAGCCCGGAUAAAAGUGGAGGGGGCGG

Variants of: B1
Experiment: self-cleavage, relative activity (ratio to wild type); higher = more cleavage; co-transcriptional
# self-cleavage binned as bottom (below 0.06), middle (0.06 to below 0.1), top (0.1 or more)

-- ask Class? Entry: A16G U43A
-- reply top

-- ask Okay, and A29G G35A ?
-- reply top

-- ask Okay, and G47U U18G ?
-- reply top

-- ask Okay, and C20U G19U ?
-- reply top

-- ask Okay, and A36C A8G ?
-- reply top

-- ask Okay, and A39C U43A ?
-- reply top

-- ask Okay, and A28C G22C ?
-- reply middle

-- ask Okay, and C21G G53U ?
-- reply bottom

-- ask Okay, and A28U C27A ?
-- reply middle

-- ask Okay, and G45U U37A ?
-- reply middle

-- ask Okay, and G47U U24G ?
-- reply bottom

-- ask Okay, and G13U U24C ?
-- reply bottom

-- ask Okay, and A17U A36C ?
-- reply top

-- ask Okay, and A39U U12G ?
-- reply top

-- ask Okay, and G42U G54C ?
-- reply top

-- ask Okay, and G48A G51C ?
-- reply bottom

-- ask Okay, and A29C G13A ?
-- reply bottom

-- ask Okay, and "A40C" ?
-- reply middle

-- ask Okay, and C27U U24A ?
-- reply bottom

-- ask Okay, and G22C G54A ?
-- reply middle

-- ask Okay, and G49A U43C ?
-- reply middle

-- ask Okay, and A28G A36C ?
-- reply middle

-- ask Okay, and A46G G19U ?
-- reply bottom

-- ask Okay, and A16G C21A ?
-- reply top

-- ask Okay, and A29U C21G ?
-- reply bottom

-- ask Okay, and A38U C26A ?
-- reply bottom

-- ask Okay, and G19C G49U ?
-- reply bottom

-- ask Okay, and C14A C31A ?
-- reply bottom

-- ask Okay, and A41U C27G ?
-- reply middle

-- ask Okay, and C20G C21A ?
-- reply top

-- ask Okay, and G42A U37C ?
-- reply top

-- ask Okay, and G49A U12A ?
-- reply middle

-- ask Okay, and C21A G44A ?
-- reply top

-- ask Okay, and G53A U18C ?
-- reply top

-- ask Okay, and C11G G53C ?
-- reply bottom

-- ask Okay, and A16G U43G ?
-- reply top

-- ask Okay, and A36C C20U ?
-- reply top

-- ask Okay, and A8U C15G ?
-- reply top

-- ask Okay, and C21A U12A ?
-- reply top

-- ask Okay, and C32A G53U ?
-- reply bottom

-- ask Okay, and C21U U37G ?
-- reply top
